# Test system: Vero E6 infected with SARS-CoV-2
# assay.text: morphology score (similarity to uninfected cells); higher = more like uninfected cells
# measurement.parameters: 24 h
Listing of recorded morphology score by entry.
Quick one: just the number, no unit, thanks!

Field: example entries. Status: answers known.
>  <compound>
O=C(O)c1ccc(Nc2ncc3c(n2)-c2ccc(Cl)cc2C(c2c(F)cccc2F)=NC3)cc1 (10 µM)

>  <measurement.name>
morphology score

>  <result.value>
0.00168

$$$$
>  <compound>
CCc1c(-c2ccccc2)c(-c2ccccc2)nn1-c1ccccc1-c1cccc(OCC(=O)O)c1 (10 µM)

>  <measurement.name>
morphology score

>  <result.value>
0.0748

$$$$
>  <compound>
CCCCCCCCCCCC1=C(O)C(=O)C=C(O)C1=O [embelin] (10 µM)

>  <measurement.name>
morphology score

>  <result.value>
-0.0413

$$$$

# compound CC(C)n1cnc2c(NCCc3ccc(O)cc3)nc(-c3csc4ccccc34)nc21 [stemregenin-1] (10 µM) ; its morphology score = 0.692

====

Listing of recorded inhibition of SARS-CoV-2 cytopathic effect by entry.
# Tested on: Vero E6 infected with SARS-CoV-2
# assay.text: inhibition of SARS-CoV-2 cytopathic effect; higher = more antiviral protection, active = above 15
# measurement.parameters: 8.33 nM; 48 h
The reply should contain only the number, in %.

Field: example entries. Status: answers known.
>  <compound>
CN1CCN(c2ccc(Nc3ncc4cc(C#N)c(=O)n(C5CCCC5)c4n3)cc2)CC1

>  <tested.system>
Vero E6 infected with SARS-CoV-2

>  <result.value>
1.36

$$$$
>  <compound>
CN1C(=O)N(c2cc(Cl)cc(Cl)c2)C(=O)[C@@]1(C)Cc1ccc(Br)cc1

>  <tested.system>
Vero E6 infected with SARS-CoV-2

>  <result.value>
-0.29

$$$$
>  <compound>
COc1ccc([C@]2(C#N)CC[C@@H](C(=O)O)CC2)cc1OC1CCCC1 [cilomilast]

>  <tested.system>
Vero E6 infected with SARS-CoV-2

>  <result.value>
-3.26

$$$$
>  <compound>
CN=C(N)NCCC[C@H](N)C(=O)O [L-monomethylarginine]

>  <tested.system>
Vero E6 infected with SARS-CoV-2

>  <result.value>
-1.38

$$$$
>  <compound>
C#Cc1cccc(Nc2ncnc3cc4c(cc23)OCCOCCOCCO4)c1 [icotinib]

>  <tested.system>
Vero E6 infected with SARS-CoV-2

>  <result.value>
0.11

$$$$

# compound Cn1c(C#N)ccc1-c1ccc2c(c1)C(C)(C)OC(=S)N2 [tanaproget] ; its inhibition of SARS-CoV-2 cytopathic effect = 4.95

# compound C[C@H]1C[C@@H]2[C@H]([C@@H](O)C[C@@]3(C)[C@H]2CC[C@]3(O)C(=O)COC(=O)CCC(=O)O)[C@@]2(C)C=CC(=O)C=C12 [methylprednisolone-sodium-succinate] ; its inhibition of SARS-CoV-2 cytopathic effect = 2.8

# compound `O=C(NO)c1cnc(N2CCN(S(=O)(=O)c3ccc4ccccc4c3)CC2)nc1` ; its inhibition of SARS-CoV-2 cytopathic effect = 2.59

====

# System: Vero E6 infected with SARS-CoV-2
# assay.text: inhibition of SARS-CoV-2 cytopathic effect; higher = more antiviral protection, active = above 15
# measurement.parameters: 10000 nM; 48 h
measurement.name: inhibition of SARS-CoV-2 cytopathic effect (%)
The reply should contain only the number, in %.

Field: example entries. Status: answers known.
>  <compound>
O=c1c(-c2ccc(O)cc2)coc2cc(O)cc(O)c12

>  <result.value>
-1.82

$$$$
>  <compound>
Oc1cc(O)c2cc(O)c(-c3cc(O)c(O)c(O)c3)[o+]c2c1

>  <result.value>
-3.76

$$$$
>  <compound>
CN1CCC[C@@H]1CCO[C@](C)(c1ccccc1)c1ccc(Cl)cc1

>  <result.value>
0.68

$$$$
>  <compound>
CCn1c(=O)c(-c2cc[nH]n2)cc2c(C)nc(N)nc21

>  <result.value>
-4.32

$$$$
>  <compound>
COc1ccc([C@@H]2CC(=O)c3c(O)cc(O[C@@H]4O[C@H](CO)[C@@H](O)[C@H](O)[C@H]4O[C@@H]4O[C@@H](C)[C@H](O)[C@@H](O)[C@H]4O)cc3O2)cc1O

>  <result.value>
-3.03

$$$$
>  <compound>
OC(c1ccccc1)C1CCN(CCc2ccccc2)CC1 (stereo not drawn)

>  <result.value>
0.25

$$$$
>  <compound>
Cc1cc(Nc2ncc(Cl)c(Nc3ccccc3S(=O)(=O)C(C)C)n2)c(OC(C)C)cc1C1CCNCC1

>  <result.value>
58.8

$$$$
>  <compound>
CC[N+](CC)(CCNC(=O)C(=O)NCC[N+](CC)(CC)Cc1ccccc1Cl)Cc1ccccc1Cl

>  <result.value>
0.34

$$$$
>  <compound>
CCN(CCCCOC(=O)c1ccc(OC)c(OC)c1)C(C)Cc1ccc(OC)cc1 (stereo not drawn)

>  <result.value>
-3.11

$$$$
>  <compound>
CC(C)N(CCC(=O)c1ccc2ccccc2c1)Cc1ccccc1

>  <result.value>
3.92

$$$$

# compound `Nc1nc(CC(=O)Nc2ccc(CCNC[C@H](O)c3ccccc3)cc2)cs1` ; its inhibition of SARS-CoV-2 cytopathic effect = -3.3

Cited source for all entries: the supplement of paper PMC13380429
